Hey, just so you know, these numbers are from the supplement of paper PMC6555819.

Tested on: PPARg:RXRa IVT, anti-PPARg (NR concentration 270 nM, RXRa partner concentration 90 nM)
Measurement Description: PBM binding z-score (relative to random genomic background probes); higher = stronger binding; sequences stand for … in GC…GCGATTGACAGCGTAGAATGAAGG
// classify(record): look up PBM binding z-score in ranges low range: < 2; mid range: ≥ 2 and < 4; high range: ≥ 4

INSERT INTO measurements (construct_sequence, discrete_label) VALUES
  ('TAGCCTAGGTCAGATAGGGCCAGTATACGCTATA', 'low range'),
  ('CTCGAAAGGTCGGTTGAGGTGGGTATACGGATAA', 'low range'),
  ('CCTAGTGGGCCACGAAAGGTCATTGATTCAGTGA', 'high range'),
  ('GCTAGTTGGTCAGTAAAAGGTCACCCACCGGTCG', 'mid range'),
  ('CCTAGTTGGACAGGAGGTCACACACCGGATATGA', 'mid range'),
  ('AATCGGAGGACAAAGGTCAGAGCTACGCCAGTGA', 'high range'),
  ('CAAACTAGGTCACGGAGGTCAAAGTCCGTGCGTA', 'high range'),
  ('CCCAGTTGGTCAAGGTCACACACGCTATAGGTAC', 'mid range'),
  ('ATCGAAAGGTCGACGAGGTGATTATACACCGTTT', 'low range'),
  ('GCTCGGAGAACAAGGTCAGAGCTTTGTCCGTAGA', 'low range'),
  ('GTACCAAGGTGATTAGGTCGTTGATGAGTAGGCG', 'low range'),
  ('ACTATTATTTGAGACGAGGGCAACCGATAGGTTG', 'low range'),
  ('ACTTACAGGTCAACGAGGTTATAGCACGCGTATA', 'high range'),
  ('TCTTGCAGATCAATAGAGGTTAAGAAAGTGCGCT', 'low range'),
  ('TCATATACGTAAAAGGTGAAAGTCGGTGTGGTAA', 'low range'),
  ('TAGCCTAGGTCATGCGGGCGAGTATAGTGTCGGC', 'mid range'),
  ('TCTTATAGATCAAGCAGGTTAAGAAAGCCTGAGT', 'low range'),
  ('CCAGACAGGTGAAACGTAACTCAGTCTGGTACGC', 'low range'),
  ('TCCTGTAGATCAATAGAGGTTAAGAAAGTGCGCT', 'low range'),
  ('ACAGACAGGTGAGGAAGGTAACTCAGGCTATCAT', 'low range'),
  ('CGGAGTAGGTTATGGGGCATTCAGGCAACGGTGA', 'high range'),
  ('AGAACGAGGTTATTAAGATCAGGGAATTGCGGTC', 'mid range'),
  ('CAGCCTAGGTCCGGGCCAGTATAGGAGGAACGTT', 'low range'),
  ('ATATGTAGGTTAAGGGTCAATCAGGTTGGTTCGC', 'high range'),
  ('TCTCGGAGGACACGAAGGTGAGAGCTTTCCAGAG', 'low range'),
  ('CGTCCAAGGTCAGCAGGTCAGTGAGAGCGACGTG', 'mid range'),
  ('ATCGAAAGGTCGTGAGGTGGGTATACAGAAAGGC', 'low range'),
  ('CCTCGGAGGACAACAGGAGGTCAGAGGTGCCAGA', 'low range'),
  ('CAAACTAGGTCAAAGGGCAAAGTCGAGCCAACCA', 'high range'),
  ('CCGAGTAGGATATGGGGCATTCAGGCAACGGTGA', 'mid range'),
  ('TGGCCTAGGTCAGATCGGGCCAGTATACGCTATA', 'low range'),
  ('TGAATGAGGTTAAAGATCAGGAAACGTGGCGTCG', 'mid range'),
  ('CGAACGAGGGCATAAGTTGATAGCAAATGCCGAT', 'low range'),
  ('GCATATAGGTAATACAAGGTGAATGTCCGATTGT', 'mid range'),
  ('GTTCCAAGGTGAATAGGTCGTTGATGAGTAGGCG', 'mid range'),
  ('ATCGAAAGGTCGAAGGTGAGGATACCCACCCGAA', 'mid range'),
  ('CAAACTAGGTCAAGATCAAAGTCGGTTTGTGCCA', 'high range'),
  ('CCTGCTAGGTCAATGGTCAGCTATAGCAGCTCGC', 'mid range'),
  ('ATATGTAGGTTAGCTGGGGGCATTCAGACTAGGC', 'high range'),
  ('GCTATTAGTTGAAAGGACAACCGAATGATTCTCG', 'low range'),
  ('CCTACTGGGACATCAGGTCATTGATATCAACGTT', 'high range'),
  ('CAAACTAGGTAAAGGTCAAAGTCGGTTTGTGCCA', 'high range'),
  ('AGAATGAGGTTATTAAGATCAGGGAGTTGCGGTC', 'mid range'),
  ('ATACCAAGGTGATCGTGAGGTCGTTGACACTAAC', 'low range'),
  ('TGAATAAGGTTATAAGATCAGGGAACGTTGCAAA', 'low range'),
  ('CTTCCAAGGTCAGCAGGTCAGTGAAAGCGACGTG', 'mid range'),
  ('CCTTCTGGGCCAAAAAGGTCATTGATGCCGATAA', 'mid range'),
  ('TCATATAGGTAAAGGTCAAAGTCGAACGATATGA', 'high range');
